Biological target: UniProt Q8R4B8
Sequence (Q8R4B8 whole entry): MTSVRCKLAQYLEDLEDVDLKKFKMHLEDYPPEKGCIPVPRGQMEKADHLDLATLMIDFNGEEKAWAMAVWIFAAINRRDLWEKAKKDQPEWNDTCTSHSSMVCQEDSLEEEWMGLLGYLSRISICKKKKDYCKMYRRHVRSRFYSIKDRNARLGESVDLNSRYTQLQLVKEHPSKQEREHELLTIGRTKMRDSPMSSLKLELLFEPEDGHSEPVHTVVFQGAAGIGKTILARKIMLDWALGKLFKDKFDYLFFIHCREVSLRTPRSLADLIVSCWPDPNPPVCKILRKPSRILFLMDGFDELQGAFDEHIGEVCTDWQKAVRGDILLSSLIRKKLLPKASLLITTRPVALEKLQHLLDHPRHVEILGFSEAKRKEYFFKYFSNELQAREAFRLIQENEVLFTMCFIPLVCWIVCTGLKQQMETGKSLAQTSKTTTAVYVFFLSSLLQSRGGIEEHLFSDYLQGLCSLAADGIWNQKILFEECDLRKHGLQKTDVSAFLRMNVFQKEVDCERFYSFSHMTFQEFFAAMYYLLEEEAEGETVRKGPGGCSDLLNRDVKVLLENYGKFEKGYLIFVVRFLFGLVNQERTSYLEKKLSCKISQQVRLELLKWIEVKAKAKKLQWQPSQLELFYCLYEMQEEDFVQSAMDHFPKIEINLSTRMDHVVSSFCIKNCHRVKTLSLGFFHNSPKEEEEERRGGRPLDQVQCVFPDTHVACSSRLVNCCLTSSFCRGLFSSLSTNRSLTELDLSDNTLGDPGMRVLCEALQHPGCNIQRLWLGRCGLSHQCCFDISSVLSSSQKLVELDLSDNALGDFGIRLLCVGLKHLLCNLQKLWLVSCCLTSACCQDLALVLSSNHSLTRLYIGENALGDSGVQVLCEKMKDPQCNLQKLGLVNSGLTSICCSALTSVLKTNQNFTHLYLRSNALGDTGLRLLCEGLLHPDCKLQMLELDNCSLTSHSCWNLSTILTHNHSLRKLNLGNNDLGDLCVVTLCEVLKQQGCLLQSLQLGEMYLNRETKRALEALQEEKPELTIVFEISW
Assay: Inhibition of canonical NLRP3 activation (LPS+ATP/Nig) in J774A.1 cells, IL-1β release by ELISA, single concentration
Type: cell-based
Design: The mouse macrophage cell line J774A.1 was used, and LPS was used as the first signal; host or cells: J774A.1 mouse monocyte-macrophage cell line
Conditions: J774.A1, 1 µM compound, LPS + 5 mM ATP or 10 µM Nig, compared with the positive control, read-out: inhibition of IL-1β release
Please provide measured inhibition at 1 µM for the entries that follow.

# value lookup — system UniProt Q8R4B8, readout inhibition at 1 µM, item CN(C)Cc1ccc(N)c(S(=O)(=O)NC(=O)Nc2c3c(cc4c2CCC4)CCC3)c1 [Example 12] 20 to 80%

// repeat for CN(C)Cc1cccc(S(=O)(=O)NC(=O)Nc2c3c(cc4c2CCC4)CCC3)c1N [Example 19] and report > 80%

Record: CN(C)Cc1cc(S(=O)(=O)NC(=O)Nc2c3c(cc4c2CCC4)CCC3)ccc1F [Example 6] > 80%

And for COc1ccc(S(=O)(=O)NC(=O)Nc2c3c(cc4c2CCC4)CCC3)c(Cl)c1CN(C)C [Example 28] ? > 80%

And for CN(C)Cc1cc(S(=O)(=O)NC(=O)Nc2c3c(cc4c2CCC4)CCC3)ccc1N [Example 7] ? > 80%

Try this compound too: CCOc1ccc(S(=O)(=O)NC(=O)Nc2c3c(cc4c2CCC4)CCC3)cc1CN(C)C [Example 14] > 80%

Now the same for CN(C)Cc1cccc(S(=O)(=O)NC(=O)Nc2c3c(cc4c2CCC4)CCC3)c1F [Example 24] > 80%

# repeat for CN(C)Cc1cc(S(=O)(=O)NC(=O)Nc2c3c(cc4c2CCC4)CCC3)ccc1Cl [Example 8] 20 to 80%

// same read-out, input: COc1c(F)cc(S(=O)(=O)NC(=O)Nc2c3c(cc4c2CCC4)CCC3)cc1CN(C)C [Example 16] 20 to 80%

# repeat for CC(C)Oc1ccc(S(=O)(=O)NC(=O)Nc2c3c(cc4c2CCC4)CCC3)cc1CN(C)C [Example 15] > 80%

Note, next up: CN(C)Cc1cccc(S(=O)(=O)NC(=O)Nc2c3c(cc4c2CCC4)CCC3)c1Cl [Example 1] > 80%

// repeat for CN(C)Cc1ccc(F)c(S(=O)(=O)NC(=O)Nc2c3c(cc4c2CCC4)CCC3)c1F [Example 25] and report > 80%

Can you handle CN(C)Cc1cc(S(=O)(=O)NC(=O)Nc2c3c(cc4c2CCC4)CCC3)ccc1O [Example 5] next? > 80%

Can you handle CN(C)Cc1ccc([N+](=O)[O-])c(S(=O)(=O)NC(=O)Nc2c3c(cc4c2CCC4)CCC3)c1 [Example 11] next? > 80%

Next entry: CN(C)Cc1cccc(S(=O)(=O)NC(=O)Nc2c3c(cc4c2CCC4)CCC3)c1O [Example 27] > 80%

# repeat for CN(C)Cc1c(F)ccc(S(=O)(=O)NC(=O)Nc2c3c(cc4c2CCC4)CCC3)c1F [Example 23] > 80%

Subsequent entry: CN(C)Cc1cccc(S(=O)(=O)NC(=O)Nc2c3c(cc4c2CCC4)CCC3)c1[N+](=O)[O-] [Example 18] > 80%

---

Assay: Mouse pharmacokinetics after intravenous administration (plasma and brain, LC-MS)
Assay type: in vivo
Conditions: C57 mice, intravenous 5 mg/kg, plasma, read-out: area under the curve (AUC) from 1 to 120 min
Description: C57 mice were administered intravenously, at a dosage concentration of 5 mg/kg in each group. Retro-orbital blood collection was performed on the mice at 1 min, 30 min, 1 h, and 2 h post-dosing. The collected blood was centrifuged at 3000 rpm for 10 min at 4 °C to obtain plasma. […] The concentration of the compound was detected using LC-MS (Agilent 1260-G6125, SIM mode). […] The concentration of the compound was detected using LC-MS (Agilent 1260-G6125, SIM mode). […]
Give log10 of AUC for every item shown.
Note: values are log10 of AUC expressed in ng·h/mL.

Requested read-out: log10 of AUC. Entry: CC(C)(O)c1coc(S(=O)(=O)NC(=O)Nc2c3c(cc4c2CCC4)CCC3)c1 [MCC950, reference compound] 4.47

Next compound: COc1ccc(S(=O)(=O)NC(=O)Nc2c3c(cc4c2CCC4)CCC3)cc1CN(C)C 5.41

What do you have for CN(C)Cc1cccc(S(=O)(=O)NC(=O)Nc2c3c(cc4c2CCC4)CCC3)c1O ? 4.67

Could you do the same for CN(C)Cc1cc(S(=O)(=O)NC(=O)Nc2c3c(cc4c2CCC4)CCC3)ccc1O , please? 4.83

And what about the compound CN1CCc2ccc(S(=O)(=O)NC(=O)Nc3c4c(cc5c3CCC5)CCC4)cc2C1 ? 4.17

Continue with CN(C)Cc1cccc(S(=O)(=O)NC(=O)Nc2c3c(cc4c2CCC4)CCC3)c1N 4.17

Queued: CN(C)Cc1cc(S(=O)(=O)NC(=O)Nc2c3c(cc4c2CCC4)CCC3)cc(F)c1O 4.19

---

Assay: Mouse pharmacokinetics after intravenous administration (plasma and brain, LC-MS)
Format: in vivo
Details: C57 mice, intravenous 5 mg/kg, plasma
Give measured half-life for each item. Keep answers brief.
Answer in h, number only, no unit symbol.

For the compound shown here, CC(C)(O)c1coc(S(=O)(=O)NC(=O)Nc2c3c(cc4c2CCC4)CCC3)c1 [MCC950, reference compound] , give the reported half-life. 1.28

Queued: CN(C)Cc1cc(S(=O)(=O)NC(=O)Nc2c3c(cc4c2CCC4)CCC3)cc(F)c1O 3.85

Now this one: CN(C)Cc1cccc(S(=O)(=O)NC(=O)Nc2c3c(cc4c2CCC4)CCC3)c1O 2.88

Try this compound next: CN(C)Cc1cccc(S(=O)(=O)NC(=O)Nc2c3c(cc4c2CCC4)CCC3)c1N 2.32

Now consider COc1ccc(S(=O)(=O)NC(=O)Nc2c3c(cc4c2CCC4)CCC3)cc1CN(C)C . 1.05

Same for CN1CCc2ccc(S(=O)(=O)NC(=O)Nc3c4c(cc5c3CCC5)CCC4)cc2C1 1.65

Also CN(C)Cc1cc(S(=O)(=O)NC(=O)Nc2c3c(cc4c2CCC4)CCC3)ccc1O ? 2.3

---

What inhibition at 1 µM was measured for each of the following?
Molecular target: hERG potassium channel (Homo sapiens, UniProt Q12809)
Construct: host or cells: HEK-293 stably expressing hERG
Sequence (Q12809 whole entry): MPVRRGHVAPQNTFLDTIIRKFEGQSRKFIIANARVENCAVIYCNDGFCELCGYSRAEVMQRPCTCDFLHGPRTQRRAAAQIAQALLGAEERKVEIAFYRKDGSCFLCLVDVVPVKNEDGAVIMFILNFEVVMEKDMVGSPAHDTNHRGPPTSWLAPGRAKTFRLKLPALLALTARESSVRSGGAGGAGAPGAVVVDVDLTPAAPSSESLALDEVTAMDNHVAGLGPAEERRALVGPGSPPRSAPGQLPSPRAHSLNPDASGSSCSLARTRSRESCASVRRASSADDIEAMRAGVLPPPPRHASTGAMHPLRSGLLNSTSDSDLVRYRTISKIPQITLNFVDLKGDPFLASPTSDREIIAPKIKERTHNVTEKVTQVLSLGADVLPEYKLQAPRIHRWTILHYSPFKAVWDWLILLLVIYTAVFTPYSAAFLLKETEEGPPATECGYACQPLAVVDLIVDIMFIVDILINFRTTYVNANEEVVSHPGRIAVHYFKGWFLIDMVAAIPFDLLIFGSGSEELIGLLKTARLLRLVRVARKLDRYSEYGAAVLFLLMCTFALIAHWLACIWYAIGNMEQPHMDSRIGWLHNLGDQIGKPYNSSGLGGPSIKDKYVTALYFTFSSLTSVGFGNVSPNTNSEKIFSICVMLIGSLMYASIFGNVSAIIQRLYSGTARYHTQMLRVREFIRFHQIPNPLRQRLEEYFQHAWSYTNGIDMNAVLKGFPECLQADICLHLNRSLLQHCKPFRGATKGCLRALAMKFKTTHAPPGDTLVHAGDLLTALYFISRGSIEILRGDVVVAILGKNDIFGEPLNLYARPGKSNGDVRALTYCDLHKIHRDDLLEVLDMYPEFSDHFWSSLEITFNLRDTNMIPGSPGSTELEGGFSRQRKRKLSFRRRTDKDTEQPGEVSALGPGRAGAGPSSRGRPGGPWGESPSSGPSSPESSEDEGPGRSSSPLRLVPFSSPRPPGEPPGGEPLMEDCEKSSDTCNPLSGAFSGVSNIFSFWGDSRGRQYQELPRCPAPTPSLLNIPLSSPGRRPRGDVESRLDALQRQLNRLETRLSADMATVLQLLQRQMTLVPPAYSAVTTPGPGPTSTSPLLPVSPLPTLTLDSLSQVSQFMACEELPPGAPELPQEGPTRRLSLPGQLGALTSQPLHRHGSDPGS
Assay: hERG inhibition, automated patch clamp (QPatch 48X) in HEK-293 cells stably expressing hERG
Assay type: cell-based
Conditions: HEK-293 cells stably expressing hERG potassium channel, pH 7.4, 1 µM, read-out: hERG inhibition rate
# output: bare number, implied unit %

Could you share which inhibition at 1 µM value was measured for CN(C)Cc1cccc(S(=O)(=O)NC(=O)Nc2c3c(cc4c2CCC4)CCC3)c1N ? 0.3

Consider next the compound CN(C)Cc1cc(S(=O)(=O)NC(=O)Nc2c3c(cc4c2CCC4)CCC3)ccc1O in the same way. 0.28

Same thing, different compound: COc1ccc(S(=O)(=O)NC(=O)Nc2c3c(cc4c2CCC4)CCC3)cc1CN(C)C 0.45

---

Molecular target: NLRP3 (Homo sapiens, UniProt Q96P20)
Sequence (Q96P20 whole entry): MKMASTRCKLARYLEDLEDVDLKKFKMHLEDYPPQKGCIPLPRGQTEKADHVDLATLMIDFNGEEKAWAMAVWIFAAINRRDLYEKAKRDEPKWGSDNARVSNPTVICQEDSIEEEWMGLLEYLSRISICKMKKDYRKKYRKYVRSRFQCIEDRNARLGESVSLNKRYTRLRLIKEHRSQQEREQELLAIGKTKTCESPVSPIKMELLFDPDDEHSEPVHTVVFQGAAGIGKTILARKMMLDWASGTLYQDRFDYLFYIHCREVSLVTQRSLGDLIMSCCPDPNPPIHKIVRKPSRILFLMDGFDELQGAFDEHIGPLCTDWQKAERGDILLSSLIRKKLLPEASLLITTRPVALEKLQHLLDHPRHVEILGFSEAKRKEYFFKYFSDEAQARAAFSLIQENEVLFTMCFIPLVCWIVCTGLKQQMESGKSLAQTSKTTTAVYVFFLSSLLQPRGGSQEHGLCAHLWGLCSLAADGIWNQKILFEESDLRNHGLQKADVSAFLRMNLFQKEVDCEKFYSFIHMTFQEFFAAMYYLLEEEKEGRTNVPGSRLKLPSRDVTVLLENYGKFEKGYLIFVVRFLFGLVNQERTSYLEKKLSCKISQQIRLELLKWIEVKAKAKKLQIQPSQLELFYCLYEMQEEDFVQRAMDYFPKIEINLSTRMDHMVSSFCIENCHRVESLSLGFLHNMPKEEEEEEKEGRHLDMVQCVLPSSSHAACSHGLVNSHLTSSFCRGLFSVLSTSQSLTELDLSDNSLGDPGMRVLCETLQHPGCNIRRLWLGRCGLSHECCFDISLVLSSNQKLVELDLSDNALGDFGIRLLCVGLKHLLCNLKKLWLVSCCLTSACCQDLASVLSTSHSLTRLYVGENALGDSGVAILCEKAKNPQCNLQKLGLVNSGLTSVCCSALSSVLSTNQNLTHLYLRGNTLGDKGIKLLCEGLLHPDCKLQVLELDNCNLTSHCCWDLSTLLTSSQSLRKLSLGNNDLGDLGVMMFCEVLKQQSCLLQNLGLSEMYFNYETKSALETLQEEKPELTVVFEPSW
Assay: Inhibition curves (IC50) of canonical NLRP3 activation (LPS+Nig) in THP-1 cells, IL-1β release
Type: cell-based
Design: host or cells: THP-1 human acute monocytic leukemia cell line, PMA-differentiated
Settings: THP-1 cell LPS+Nig activation model
Method: Nig was purchased from Shanghai Yuanye Bio-Technology Co., Ltd., Cat. No.: S45490. The cells were incubated overnight. Therefore, the relative change in the amount of IL-1β release may directly reflect NLRP3 inhibitory effect. The inhibitory effect of the compounds varies with different concentrations, and based on this, an inhibition curve can be constructed, and the inhibitory effects of the compounds were assessed by IC50.
Field: IC50. Provide a value for each of the compounds that follow.
Write the answer as a number in nM, unit excluded.

Look up IC50: Cc1c(S(=O)(=O)NC(=O)Nc2c3c(cc4c2CCC4)CCC3)ccc(O)c1CN(C)C 36.7

And the next one, CN(C)Cc1cccc(S(=O)(=O)NC(=O)Nc2c3c(cc4c2CCC4)CCC3)c1N ? 278

---

Biological target: NLRP3 (Homo sapiens)
Assay: Inhibition curves (IC50) of canonical NLRP3 activation in healthy human whole blood, IL-1β release
Type: cell-based
Conditions: LPS+1 mM ATP canonical activation model
reported metric: pIC50
# reply with the number alone; pIC50 is -log10 of concentration in mol/L

Recorded pIC50 for CN(C)Cc1cccc(S(=O)(=O)NC(=O)Nc2c3c(cc4c2CCC4)CCC3)c1O [Example 27] , please? 4.25

---

Assay: Rat plasma pharmacokinetics after intravenous administration (LC-MS)
Format: in vivo
Details: SD rats, intravenous 2.5 mg/kg, read-out: AUC from 1 to 1440 min
Would you kindly list AUC for each of these compounds?
Numbers only; they are read as ng·h/mL.

# get_value(readout='AUC', item= CN(C)Cc1cc(S(=O)(=O)NC(=O)Nc2c3c(cc4c2CCC4)CCC3)ccc1O ) 33900

Try CC(C)(O)c1coc(S(=O)(=O)NC(=O)Nc2c3c(cc4c2CCC4)CCC3)c1 [MCC950, reference compound] next. 4380

For CN(C)Cc1cccc(S(=O)(=O)NC(=O)Nc2c3c(cc4c2CCC4)CCC3)c1N then? 56500
